test system: DeltatarO mutant; test: S. aureus survival, RN4220 and DeltatarO strains – OD600, teichoic acid synthesis inhibitors, primary screen (AID 463173); conditions: S. aureus RN4220 wild type/DeltatarO growth, OD600, 18 h, active compounds read low, screened at 18.75 µg/mL (by protocol)
Out of some 52,000 compounds screened, about 4,300 (8.3%) were called active. This is one part of a sample in which actives are shown more often than they occur.
VALUE KIND: survival (%)
Please respond with the number in % and leave the unit unwritten.

Worked set:
# COMPOUND, TESTED ON, survival (%)
rows = [
    ("O=C(CN1C(=O)C2CCCCN2c2ccc(C(=O)N3CCCC3)cc21)NCc1cccc(F)c1 (centres undefined)", "DeltatarO mutant", 66),
    ("CC1CCN(S(=O)(=O)c2ccc3c(c2)N(CC(=O)O)C(=O)CO3)CC1", "DeltatarO mutant", 94),
    ("Cc1ccc(Cl)cc1-n1nnc(-c2nc(-c3ccc4c(c3)OCO4)no2)c1C", "DeltatarO mutant", 122),
]

What measured survival goes with COc1nc(-c2ccc(C)cc2)ccc1-c1noc(-c2ccccc2Br)n1 ?
19

Dear colleague, I am looking for the recorded survival of the following compound: O=C(NCCS(=O)(=O)N1CCN(c2ccc(F)cc2)CC1)c1cc(=O)c2ccccc2o1
94

For the compound shown here, O=C(c1ccc(Cl)cc1)N1CCN(CCc2ccncc2)CC1 , give the reported survival.
103

Quick check: survival of CC(=O)Nc1nonc1-c1nnc(SCC(=O)Nc2ccc(C)c(Cl)c2)n1C ?
60

Recorded survival of Cc1nnc(SCc2ccc(Cl)cc2Cl)o1 , please.
80

Name the recorded survival for CCSc1nc2ccccc2c(OCc2ccccc2Cl)c1C(=O)OC .
64

Tell me the measured survival of CC(=O)Nc1nonc1-c1nnc(SCc2ccc(F)cc2Cl)n1C , please.
45

Request the reported survival associated with COc1ccc(C(=O)N2CC(C)CC(C)C2)cc1 (centres undefined)
98

Which survival value is on record for CCSc1nc2ccccc2c(OCc2cc(C(=O)OC)ccc2OC)c1C(=O)OC ?
-12

Look up survival for this compound: COc1ccc(-c2cc(C(F)(F)F)nc(-n3nc(C(F)(F)F)cc3C)n2)cc1
16

Value lookup for survival; key = O=C(O)CCc1ccco1
98

Requested read-out: survival. Entry: CC(=O)Nc1nonc1-c1nnc(SCc2ccccc2Cl)n1C
42

Need survival, item Cc1cc(C(F)(F)F)nn1-c1nc(-c2ccccc2)cc(C(F)(F)F)n1
17

Dear colleague, I am looking for the recorded survival of the following compound: COc1ccc(S(=O)(=O)N(CC(=O)NCCSCc2ccccc2)c2ccc(C)cc2)cc1
54

Which survival is listed for O=C(NCCS(=O)(=O)N1CCN(c2ccccc2F)CC1)c1cc(=O)c2ccccc2o1 ?
71

Item CCCCN(CC)CCNC(=O)c1c(C)oc2ncnc(N3CCOCC3)c12 has what recorded survival?
87

I would be grateful if you could share the reported survival for COC(=O)c1c(SC)nc2ccccc2c1OCc1ccccc1C .
105
